system: 786-0; test: NCI tumour cell line growth inhibition, 48 h
Active and inactive are the calls of the source. Cut-off read from the data, not from the text of the source: active = GI50 up to about 1.1 µM and inactive = higher.
Recorded GI50 for the following molecules
Parameter: GI50

>>> assay_result("CCC1=C(C)/C(=C/c2[nH]c(CBr)c(CC)c2C)N=C1CBr")
"17 µM (inactive)"
>>> assay_result("O=C(CSc1nc2ccc(I)cc2c(=O)n1Cc1ccccc1)N/N=C/c1ccccc1")
"11.8 µM (inactive)"
>>> assay_result("CCOC(=O)/C=C(\\C(=O)OCC)n1ccc(=O)[nH]c1=O")
"4.85 µM (inactive)"
>>> assay_result("N#Cc1c([N+](=O)[O-])cc(C(F)(F)F)cc1[N+](=O)[O-]")
"6.14 µM (inactive)"
>>> assay_result("CC(=O)NC1=C(Sc2ccc(Cl)cc2)C(=O)c2ccccc2C1=O")
"2.09 µM (inactive)"
>>> assay_result("Oc1ccc(O)c(Sc2nnc(CCCCCCCCc3nnc(Sc4cc(O)ccc4O)o3)o2)c1")
"19 µM (inactive)"
>>> assay_result("CCC(=O)/C(=C\\I)c1ccccc1")
"1.78 µM (inactive)"
>>> assay_result("CCNCCCCNCCCCNCCCCNCCCCNCC")
"34.8 µM (inactive)"
>>> assay_result("Nc1nc(NNc2ccc(Cl)c(Cl)c2)cc(=O)[nH]1")
"21.6 µM (inactive)"
>>> assay_result("C/C(=N\\NC(N)=S)c1ccc2c(c1)Sc1ccccc1O2")
"3.18 µM (inactive)"
>>> assay_result("Cc1cc(Cl)nc(NC(=O)CSc2ccc(Cl)cc2)n1")
"> 100 µM (inactive)"
>>> assay_result("COc1cc(/C=C2\\Sc3scc(-c4cccc([N+](=O)[O-])c4)[n+]3C2=O)cc(OC)c1OC")
"10.4 µM (inactive)"
>>> assay_result("CCOC(=O)c1c(NS(=O)(=O)c2ccc(C)cc2)sc2c1CCCC2")
"35.2 µM (inactive)"

###

GI50 reference
test system: OVCAR-5; assay: NCI tumour cell line growth inhibition, 48 h
Calls of active or inactive are those of the source. No stated cut-off is given here; in the data, active = GI50 up to about 1.1 µM and inactive = higher. Residues, ends and D or L forms follow the SMILES beside them.
Parameter: GI50

>>> assay_result("CCC(C)C(NC(=O)C(CC(C)C)NC(=O)CNC(=O)C(NC(=O)C1CCCN1C(=O)C(CC(C)C)NC(=O)C(N)Cc1ccccc1)C(C)CC)C(=O)NC(CC(C)C)C(N)=O (stereo not given) (H-FLPIGLIL-NH2; configuration not given here)")
"> 75 µM (inactive)"
>>> assay_result("COc1ccc(OC2OC(CO)C(OCc3ccccc3)C(OCc3ccccc3)C2OCc2ccccc2)cc1 (stereo not given)")
"> 100 µM (inactive)"
>>> assay_result("C=CCN1C(=O)CC2[C@@H]3CCc4cc(O)ccc4C3CC[C@]2(C)C1=O (stereo not given in full)")
"> 10 µM (inactive)"
>>> assay_result("N#CCN1C(=O)c2cccc3cc([N+](=O)[O-])cc(c23)C1=O")
"31.3 µM (inactive)"
>>> assay_result("Cc1cc2cc3c(cc2c(-c2ccc(N)cc2)n1)OCO3")
"36.6 µM (inactive)"

###

system: TK-10; experiment: NCI tumour cell line growth inhibition, 48 h
Activity calls are given as the source filed them. Cut-off read from the data, not from the text of the source: active = GI50 up to about 1.1 µM and inactive = higher.
Possible outcomes: active, inactive

>>> class_name("CC1(C)OC[C@@H](O)[C@H](C#N)CO1")
"inactive"
>>> class_name("O=S(=O)(O)CCCc1cccc2ccccc12")
"inactive"
>>> class_name("COC(C)(C)[C@@H](O)[C@H]1C[C@H](C)[C@@]2(CC[C@]3(C)[C@@H]2CC[C@@H]2[C@@]4(C)CC[C@@H](OC(C)=O)C(C)(C)[C@@H]4C[C@@H](OC4OC(COC(C)=O)C(O)C(O)C4O)[C@]23C)O1 (stereo partly drawn)")
"inactive"
>>> class_name("O=C(C=P(c1ccccc1)(c1ccccc1)c1ccccc1)c1cccc(-c2cccc([N+](=O)[O-])c2)c1")
"inactive"
>>> class_name("CC[C@H]1CN2CCc3cc(OC)c(OC)cc3[C@@H]2C[C@@H]1C[C@H]1NCCc2c1[nH]c1ccc(O)cc21 [TUBULOSINE]")
"active"
>>> class_name("CCC/C(=N\\NC(=S)N1CC2CCC(CC2)C1)c1ccccn1")
"active"
>>> class_name("CCc1ccccc1NC(=O)C1=C(C)NC(C)=C(C(=O)Nc2ccccc2CC)C1c1ccccc1Cl")
"inactive"
>>> class_name("NC(=O)N/N=C/C(=C/Nc1ccccc1)[N+](=O)[O-]")
"inactive"
>>> class_name("O=C1C=CC(=O)c2c(O)c(N3CCN(c4ccccn4)CC3)cc(O)c21")
"inactive"
>>> class_name("O=C(CC1(O)C(=O)Nc2c(Cl)cccc21)c1ccccc1 (stereo not drawn)")
"inactive"
>>> class_name("CCOC(=O)C(Sc1ccccc1)c1c(OC)cc(=O)oc1/C=[N+](/[O-])c1ccc(N(C)C)cc1 (stereo not drawn)")
"inactive"
>>> class_name("CCOC(=O)c1cnc2c(ccc3ncccc32)c1NCCCN(CC)CC")
"inactive"
>>> class_name("CC1(C)CC(=O)c2c(nc3c(ccc4ccccc43)c2-c2ccc(NC(=O)CCC(=O)Nc3ccc(-c4c5c(nc6c4ccc4ccccc46)CC(C)(C)CC5=O)cc3)cc2)C1")
"inactive"

###

test system: A549; experiment: NCI tumour cell line growth inhibition, 48 h
The source made the active and inactive calls. No stated cut-off is given here; in the data, active = GI50 up to about 1.1 µM and inactive = higher.
Possible outcomes: active, inactive

>>> class_name("CCC(=O)/C(=C\\I)c1ccccc1")
"inactive"
>>> class_name("CC(C)(O)[C@@H]1CC[C@](C)(C2[C@@H](O)C[C@@]3(C)C4C[C@H](OC5OCC(O)C(O)C5O)[C@H]5C(C)(C)[C@@H](OC6OCC(O)C(O)C6OC6OCC(O)C(O)C6O)CC[C@@]56C[C@@]46CC[C@]23C)O1 (stereo partly drawn)")
"inactive"
>>> class_name("O=c1c2c(-c3ccccc3)c3ccccc3nc2cnn1-c1ccccc1")
"inactive"
>>> class_name("CC(C)NCCCNc1c2ccccc2nc2cccc([N+](=O)[O-])c12")
"active"
>>> class_name("Cc1c2cccc(Sc3ccccc3)c2c2c3c(cccc13)[S+](c1ccccc1)C2 (stereo not drawn)")
"inactive"
>>> class_name("CC(=O)Oc1cc(OC(C)=O)c2cc3c(cc2c1OC(C)=O)C(=O)C1(CCCC1)C3=O")
"inactive"
>>> class_name("C=C(C)[C@@]12C[C@H](OC(=O)[C@H](O)[C@@H](NC(=O)c3ccccc3)c3ccccc3)C(C)=C1[C@@H](OC(C)=O)C(=O)[C@@]1(C)C([C@@H]2OC(=O)c2cc(F)cc(F)c2)C2(OC(C)=O)CO[C@@H]2C[C@@H]1O (stereo partly drawn)")
"active"
>>> class_name("COc1cc(-c2cc(=O)c3c(O)c(OC)c(OC)c(OC)c3o2)cc(OC)c1OC [GARDENIN]")
"inactive"
>>> class_name("Cc1ccc2c(c1)SC1=Nc3sc4cc(C)ccc4[n+]3CN12")
"inactive"
>>> class_name("COc1ccc(C(N)=O)c(OC)c1OCc1ccccc1")
"inactive"
>>> class_name("O=[N+]([O-])c1ccc(/C=C(/c2ccc([N+](=O)[O-])o2)S(=O)(=O)c2ccccc2)o1")
"inactive"
>>> class_name("COC(=O)C(CC1=C(O)Nc2ccccc2N1)/C(=N/NC(N)=O)C(=O)Nc1ccccc1C (stereo not drawn)")
"inactive"
>>> class_name("COC1=CC(=O)c2nc3ccccc3c3ccnc1c23")
"inactive"
>>> class_name("O=S(=O)(CC(Cl)c1ccccc1)c1nc2ccccc2s1 (stereo not drawn)")
"inactive"
>>> class_name("NNC(=O)CC(=O)Nc1cccc(Cl)c1")
"inactive"
>>> class_name("O=C(O)c1c(-c2c3ccc(=O)cc-3oc3cc(O)ccc23)cc2ccccc2c1-c1ccccc1")
"inactive"
>>> class_name("COC(=O)C1(C(=O)OC)N=C(C)OC1c1ccoc1 (stereo not drawn)")
"inactive"
>>> class_name("Cc1cc2cc3c(cc2c(-c2ccc(N)cc2)n1)OCO3")
"inactive"
>>> class_name("O=C(O)c1cc2c(ncc3c(=O)n(-c4ccccc4)[nH]c32)s1")
"inactive"
>>> class_name("CN1C(c2ccccc2)CC(=Nc2ccccc2)CC1c1ccccc1 (stereo not drawn)")
"inactive"
>>> class_name("CC/C(C)=C1\\CCC(CN2CCOCC2)C1=O (stereo not drawn)")
"inactive"
>>> class_name("N#CNCC(COCc1ccccc1)c1ccccc1 (stereo not drawn)")
"inactive"
>>> class_name("CC(C)Cc1ccc(C(C)/C=C2\\CCC(CN3CCOCC3)C2=O)cc1 (stereo not drawn)")
"inactive"
>>> class_name("CCOC(=O)N1c2c(c3ccccc3n2C(=O)OCC)C(=O)C(OC)N1C(=O)OCC (stereo not drawn)")
"inactive"
>>> class_name("COC(=O)Cc1c(C2C(CC(=O)OC)c3ccccc3N2C2OC(CO)C(O)C(O)C2O)[nH]c2ccccc12 (stereo not drawn)")
"inactive"
>>> class_name("Cc1nnc2n1N=C(c1cc(F)c(Cl)cc1Cl)/C(=C/c1ccc(Cl)cc1)S2")
"inactive"
>>> class_name("CSC(=S)N(C)C [CYSTOGON]")
"inactive"
>>> class_name("O=C(NC1C2CC3CC(C2)CC1C3)c1ccncn1 (stereo not drawn)")
"inactive"
>>> class_name("COC1(OC)C2(Cl)C(Cl)=C(Cl)C1(Cl)C1c3ccc(C(C)=O)c4cccc(c34)C12 (stereo not drawn)")
"inactive"
>>> class_name("O=C(CC1(O)C(=O)Nc2c(Cl)cccc21)c1ccccc1 (stereo not drawn)")
"inactive"
>>> class_name("NNC1=NC(=O)NC(=O)C1")
"inactive"
>>> class_name("CC1(C)OC(C(=O)Nc2cc3c4ccccc4ccc3c3ccccc23)C(C(=O)N2CCCCC2)O1 (stereo not drawn)")
"active"
>>> class_name("N=S(c1ccccc1)c1ccccc1[N+](=O)[O-] (stereo not drawn)")
"inactive"
